# System: sepsis and sepsis related ARDS
# experiment notes: Overall effect on sepsis and sepsis related ARDS
# run conditions: in vivo
property: effect on sepsis and sepsis related ARDS

compound="CC(C)(C)NC[C@H](O)c1cc(O)cc(O)c1 [(R)-terbutaline]" result_value="very effective"
compound="CC(C)(C)NC[C@H](O)c1ccc(O)c(CO)c1 [(R)-salbutamol]" result_value="very effective"
